Experiment: Half life in male Sprague-Dawley rat at 10 mg/kg, po measured after 24 hrs by LC-MS/MS analysis
Assay type: ADME, organism-based
Details: in vivo
# binarize half-life: threshold 5 h inclusive, high side Fulfilled, low side Not fulfilled

// below: answered molecules
1) C/C(=C\Cc1c(O)ccc2c1OC(c1ccc(Br)c3ccccc13)CC2=O)C(=O)O (stereo not given)	Not fulfilled
2) C/C(=C\Cc1cccc2c1OC(c1ccc(Br)c3ccccc13)CC2=O)C(=O)O (stereo not given)	Fulfilled
3) C/C(=C\Cc1c(O)ccc2c1OC(c1cccs1)CC2=O)C(=O)O (stereo not given)	Not fulfilled

Attention now shifts to the item below.
Assess whether reported half-life for CC(C)=CCc1c(O)ccc2c1OC(c1ccc(O)cc1)CC2=O (stereo not given) sits at 5 h or higher. Fulfilled

* * *

Assay: Renal toxicity in potassium oxonate-induced male Kunming mouse model assessed as effect on kidney damage at 10 mg/kg,po via gavage administered 1 hr post-potassium oxonate challenge and measured after 7 days on day 7 potassium oxonate injected after 12 hrs fasting and measured followed by 1.5 hrs of compound administration
Assay type: organism-based
Conditions: in vivo, 168 h, time 7 day
readout_type: Activity

1) C/C(=C\Cc1c(O)ccc2c1OC(c1ccc(Br)c3ccccc13)CC2=O)C(=O)O (stereo unspecified)	Non-Toxic
2) C/C(=C\Cc1cccc2c1OC(c1ccc(Br)c3ccccc13)CC2=O)C(=O)O (stereo unspecified)	Non-Toxic
3) C/C(=C\Cc1cccc2c1OC(c1cccs1)CC2=O)C(=O)O (stereo unspecified)	Non-Toxic
4) C/C(=C\Cc1c(O)ccc2c1OC(c1cccs1)CC2=O)C(=O)O (stereo unspecified)	Non-Toxic
5) C/C(=C\Cc1c(O)ccc2c1OC(c1csc3ccccc13)CC2=O)C(=O)O (stereo unspecified)	Non-Toxic

Turning now to a further molecule:
For the molecule O=C(O)CSc1nnc(Br)n1-c1ccc(C2CC2)c2ccccc12 , what Activity is on record? Non-Toxic

* * *

Test: Cmax in male Sprague-Dawley rat at 10 mg/kg, po measured after 24 hrs by LC-MS/MS analysis
Assay type: ADME, organism-based
Details: in vivo
readout_type: Cmax (ng/mL)
The figure you give is taken to be in ng/mL; do not add the unit.

Illustrative cases are given below, each with its answer.
1) CC(C)=CCc1c(O)ccc2c1OC(c1ccc(O)cc1)CC2=O (stereo not given)	1110
2) C/C(=C\Cc1cccc2c1OC(c1cccs1)CC2=O)C(=O)O (stereo not given)	2090

For the molecule C/C(=C\Cc1c(O)ccc2c1OC(c1cccs1)CC2=O)C(=O)O (stereo not given) , what Cmax is on record? 1410

For the molecule C/C(=C\Cc1cccc2c1OC(c1ccc(Br)c3ccccc13)CC2=O)C(=O)O (stereo not given) , what Cmax is on record? 2250

For the molecule C/C(=C\Cc1c(O)ccc2c1OC(c1ccc(Br)c3ccccc13)CC2=O)C(=O)O (stereo not given) , what Cmax is on record? 1380

* * *

Target: Solute carrier family 22 member 12 (Homo sapiens, UniProt Q96S37)
Sequence (Q96S37 whole entry): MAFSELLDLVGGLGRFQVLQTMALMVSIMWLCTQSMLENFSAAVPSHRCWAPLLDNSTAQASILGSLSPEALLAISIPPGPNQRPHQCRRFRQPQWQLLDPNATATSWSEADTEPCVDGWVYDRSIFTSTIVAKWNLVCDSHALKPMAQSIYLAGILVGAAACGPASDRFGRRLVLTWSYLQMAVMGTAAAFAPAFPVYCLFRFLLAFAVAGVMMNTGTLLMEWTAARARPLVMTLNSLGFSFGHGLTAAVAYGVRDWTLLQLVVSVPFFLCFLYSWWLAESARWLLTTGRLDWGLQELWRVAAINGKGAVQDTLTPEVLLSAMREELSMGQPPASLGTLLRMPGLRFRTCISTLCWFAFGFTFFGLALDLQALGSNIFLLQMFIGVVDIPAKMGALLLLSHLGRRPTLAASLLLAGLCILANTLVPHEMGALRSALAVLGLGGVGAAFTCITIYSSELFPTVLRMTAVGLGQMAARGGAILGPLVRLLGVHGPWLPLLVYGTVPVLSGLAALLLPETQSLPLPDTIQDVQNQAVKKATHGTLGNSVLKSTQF
Assay: Inhibition of human URAT1 transfected in HEK293 cells by measuring 14C-uric acid uptake at 5 uM preincubated for 30 mins followed by 14--uric acid addition and measured after 15 mins by liquid scintillation counter analysis relative to control
Format: cell-based
Conditions: 0.25 h, time 45 min
# binarize inhibition at 5 µM: threshold 20% inclusive, high side T, low side F

1) CC(C)=CCc1c(O)ccc2c1OC(c1ccc(O)cc1)CC2=O (centres undefined)	T
2) CC(C)=CCc1c(O)ccc2c1OC(c1ccc(Cl)cc1)CC2=O (centres undefined)	F
3) CC(C)=CCc1c(O)ccc2c1OC(c1ccc(Br)cc1)CC2=O (centres undefined)	T
4) CC(C)=CCc1c(O)ccc2c1OC(c1cccc(F)c1)CC2=O (centres undefined)	T
5) CC(C)=CCc1c(O)ccc2c1OC(c1csc3ccccc13)CC2=O (centres undefined)	T
6) CC(C)=CCc1c(O)ccc2c1OC(c1ccsc1)CC2=O (centres undefined)	T

Assess whether reported inhibition at 5 µM for CC(C)=CCc1c(O)ccc2c1OC(c1ccc(F)cc1)CC2=O (centres undefined) sits at 20% or higher. F

Assess whether reported inhibition at 5 µM for CC(C)=CCc1c(O)ccc2c1OC(c1cc3ccccc3s1)CC2=O (centres undefined) sits at 20% or higher. F

* * *

Quick reference for AUC(0-inf) among some molecules
Assay: AUC (0 to infinity) in male Sprague-Dawley rat at 10 mg/kg, po measured after 24 hrs by LC-MS/MS analysis
Assay type: ADME, organism-based
Details: in vivo
The figure you give is taken to be in ng·h/mL; do not add the unit.

Illustrative cases are given below, each with its answer.
1. C/C(=C\Cc1cccc2c1OC(c1cccs1)CC2=O)C(=O)O (stereo not given)	14700
2. C/C(=C\Cc1c(O)ccc2c1OC(c1cccs1)CC2=O)C(=O)O (stereo not given)	5560
3. C/C(=C\Cc1c(O)ccc2c1OC(c1ccc(Br)c3ccccc13)CC2=O)C(=O)O (stereo not given)	8270
4. CC(C)=CCc1c(O)ccc2c1OC(c1ccc(O)cc1)CC2=O (stereo not given)	7460

For the molecule C/C(=C\Cc1cccc2c1OC(c1ccc(Br)c3ccccc13)CC2=O)C(=O)O (stereo not given) , what AUC(0-inf) is on record? 18700

* * *

Experiment: Tmax in male Sprague-Dawley rat at 10 mg/kg, po measured after 24 hrs by LC-MS/MS analysis
Format: ADME, organism-based
Details: in vivo
Criterion: Tmax strictly less than 1 h. Met: met. Not met: not met.

// below: answered compounds
1) C/C(=C\Cc1c(O)ccc2c1OC(c1ccc(Br)c3ccccc13)CC2=O)C(=O)O (stereo not given)	not met
2) CC(C)=CCc1c(O)ccc2c1OC(c1ccc(O)cc1)CC2=O (stereo not given)	not met
3) C/C(=C\Cc1cccc2c1OC(c1cccs1)CC2=O)C(=O)O (stereo not given)	met
4) C/C(=C\Cc1c(O)ccc2c1OC(c1cccs1)CC2=O)C(=O)O (stereo not given)	not met

Input C/C(=C\Cc1cccc2c1OC(c1ccc(Br)c3ccccc13)CC2=O)C(=O)O (stereo not given) ; condition: Tmax strictly below 1 h. Does it hold? not met

* * *

System: Mus musculus
Test: Anti-hyperuricemic activity against potassium oxonate-induced male Kunming mouse model assessed as reduction in serum uric acid level at 10 mg/kg, po via gavage administered 1 hr post-potassium oxonate challenge and measured after 7 days on day 7 potassium oxonate injected after 12 hrs fasting and measured followed by 1.5 hrs of compound administration
Format: functional
Conditions: time 7 day
readout_type: Activity (µM)
The figure you give is taken to be in µM; do not add the unit.

Illustrative cases are given below, each with its answer.
1. C/C(=C\Cc1cccc2c1OC(c1cccs1)CC2=O)C(=O)O (stereo unspecified)	317.1
2. O=C(O)CSc1nnc(Br)n1-c1ccc(C2CC2)c2ccccc12	380.14
3. C/C(=C\Cc1c(O)ccc2c1OC(c1csc3ccccc13)CC2=O)C(=O)O (stereo unspecified)	392.02
4. C/C(=C\Cc1c(O)ccc2c1OC(c1cccs1)CC2=O)C(=O)O (stereo unspecified)	366.12
5. C/C(=C\Cc1cccc2c1OC(c1ccc(Br)c3ccccc13)CC2=O)C(=O)O (stereo unspecified)	319.1

Turning now to a further molecule:
For the molecule C/C(=C\Cc1c(O)ccc2c1OC(c1ccc(Br)c3ccccc13)CC2=O)C(=O)O (stereo unspecified) , what Activity is on record? 397.87

* * *

Target: Solute carrier family 2, facilitated glucose transporter member 9 (Homo sapiens) (UniProt Q9NRM0)
Sequence (Q9NRM0 whole entry): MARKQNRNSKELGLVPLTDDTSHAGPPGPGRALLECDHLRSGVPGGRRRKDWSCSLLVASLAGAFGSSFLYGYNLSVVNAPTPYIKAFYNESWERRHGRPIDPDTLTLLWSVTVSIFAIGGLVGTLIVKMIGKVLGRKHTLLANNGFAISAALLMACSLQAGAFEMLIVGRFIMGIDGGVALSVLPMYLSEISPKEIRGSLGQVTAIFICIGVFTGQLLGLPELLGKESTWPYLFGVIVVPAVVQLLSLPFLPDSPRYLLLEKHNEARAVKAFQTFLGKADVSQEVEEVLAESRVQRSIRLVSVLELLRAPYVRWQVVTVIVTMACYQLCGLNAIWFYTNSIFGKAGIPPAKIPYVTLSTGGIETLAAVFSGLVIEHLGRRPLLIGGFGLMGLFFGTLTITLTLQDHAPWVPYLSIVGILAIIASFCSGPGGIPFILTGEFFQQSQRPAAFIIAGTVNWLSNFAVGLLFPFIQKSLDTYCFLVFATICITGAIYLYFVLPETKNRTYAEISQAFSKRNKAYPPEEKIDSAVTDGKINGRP
Assay: Inhibition of GLUT9 (unknown origin) overexpressed in uric acid-induced HEK293 cells at 25 uM by patch clamp analysis relative to control
Type: cell-based
readout_type: inhibition (%)
The figure you give is taken to be in %; do not add the unit.

Illustrative cases are given below, each with its answer.
1. C/C(=C\Cc1cccc2c1OC(c1ccc(Br)c3ccccc13)CC2=O)C(=O)O (stereo unspecified)	91
2. C/C(=C\Cc1cccc2c1OC(c1cccs1)CC2=O)C(=O)O (stereo unspecified)	22.7
3. C/C(=C\Cc1c(O)ccc2c1OC(c1cccs1)CC2=O)C(=O)O (stereo unspecified)	25.5
4. C/C(=C\Cc1c(O)ccc2c1OC(c1ccc(Br)c3ccccc13)CC2=O)C(=O)O (stereo unspecified)	8.21
5. CC(C)=CCc1c(O)ccc2c1OC(c1ccc(O)cc1)CC2=O (stereo unspecified)	95.5

For the compound C/C(=C\Cc1c(O)ccc2c1OC(c1csc3ccccc13)CC2=O)C(=O)O (stereo unspecified) , what inhibition is on record? 8.33

* * *

Molecular target: Solute carrier family 22 member 12 (Homo sapiens, UniProt Q96S37)
Test: Inhibition of human URAT1 transfected in HEK293 cells by measuring 14C-uric acid uptake preincubated for 30 mins followed by 14--uric acid addition and measured after 15 mins by liquid scintillation counter analysis
Format: cell-based
Criterion: IC50 strictly less than 800 nM. Met: TRUE. Not met: FALSE.

1. C/C(=C\Cc1c(O)ccc2c1OC(c1ccc(Cl)cc1)CC2=O)C(=O)O (stereo not given)	FALSE
2. O=C(O)/C=C/Cc1cccc2c1OC(c1cccs1)CC2=O (stereo not given)	FALSE
3. O=C(O)/C=C/Cc1cccc2c1OC(c1ccc(Br)c3ccccc13)CC2=O (stereo not given)	TRUE
4. O=C(O)/C=C/Cc1cccc2c1OC(c1cc3ccccc3s1)CC2=O (stereo not given)	FALSE

Input C/C(=C\Cc1c(O)ccc2c1OC(c1cccs1)CC2=O)C(=O)O (stereo not given) ; condition: IC50 strictly below 800 nM. Does it hold? TRUE

Input C/C(=C\Cc1c(O)ccc2c1OC(c1ccc(O)cc1)CC2=O)C(=O)O (stereo not given) ; condition: IC50 strictly below 800 nM. Does it hold? FALSE

Input O=C(O)C/C=C/Cc1c(O)ccc2c1OC(c1csc3ccccc13)CC2=O (stereo not given) ; condition: IC50 strictly below 800 nM. Does it hold? TRUE

Input O=C(O)/C=C/Cc1c(O)ccc2c1OC(c1cccs1)CC2=O (stereo not given) ; condition: IC50 strictly below 800 nM. Does it hold? FALSE

Input C/C(=C\Cc1cccc2c1OC(c1cc3ccccc3s1)CC2=O)C(=O)O (stereo not given) ; condition: IC50 strictly below 800 nM. Does it hold? FALSE

Input C/C(=C\Cc1cccc2c1OC(c1csc3ccccc13)CC2=O)C(=O)O (stereo not given) ; condition: IC50 strictly below 800 nM. Does it hold? FALSE
